- assay_remarks: Oral bioavailability in Sprague-Dawley rat at 10 mg/kg
- Type: ADME, organism-based
- details: in vivo
result_type: bioavailability
I'd appreciate it if you wrote the number followed by its unit.

Request: Name the recorded bioavailability of the item `O=C(O)CCCN1CCC[C@H]1COc1ccc(Oc2ccc(Cl)cc2)cc1` in your answer.
Result: 87%

----------
- assay_remarks: Half life in dog at 10 mg/kg, po
- Type: ADME, organism-based, Canis lupus familiaris
- Parameters: dose 10 mg/kg, route oral
- details: in vivo
result_type: half-life (h)
Numbers only, in h.

Request: Name the recorded half-life of the item `O=C(O)CCCN1CCC[C@H]1COc1ccc(Oc2ccc(Cl)cc2)cc1` in your answer.
Result: 4.02

----------
- assay_remarks: Clearance in Sprague-Dawley rat at 10 mg/kg, iv
- Format: ADME, organism-based
- Set-up: dose 10 mg/kg, route intravenous
- details: in vivo
result_type: clearance (mL/min/kg)
Give bare numbers, in mL/min/kg.

Request: Name the recorded clearance of the item `O=C(O)CCCN1CCC[C@H]1COc1ccc(Oc2ccc(Cl)cc2)cc1` in your answer.
Result: 11

----------
- assay_remarks: Clearance in monkey at 10 mg/kg, iv
- Type: ADME, organism-based, Macaca mulatta
- Parameters: dose 10 mg/kg, route intravenous
- details: rhesus monkey, in vivo
result_type: clearance (mL/min/kg)
Numbers only, in mL/min/kg.

Request: Name the recorded clearance of the item `O=C(O)CCCN1CCC[C@H]1COc1ccc(Oc2ccc(Cl)cc2)cc1` in your answer.
Result: 6

----------
- system_tested: CYP2C9 (Homo sapiens, UniProt P11712)
- Sequence (P11712 whole entry): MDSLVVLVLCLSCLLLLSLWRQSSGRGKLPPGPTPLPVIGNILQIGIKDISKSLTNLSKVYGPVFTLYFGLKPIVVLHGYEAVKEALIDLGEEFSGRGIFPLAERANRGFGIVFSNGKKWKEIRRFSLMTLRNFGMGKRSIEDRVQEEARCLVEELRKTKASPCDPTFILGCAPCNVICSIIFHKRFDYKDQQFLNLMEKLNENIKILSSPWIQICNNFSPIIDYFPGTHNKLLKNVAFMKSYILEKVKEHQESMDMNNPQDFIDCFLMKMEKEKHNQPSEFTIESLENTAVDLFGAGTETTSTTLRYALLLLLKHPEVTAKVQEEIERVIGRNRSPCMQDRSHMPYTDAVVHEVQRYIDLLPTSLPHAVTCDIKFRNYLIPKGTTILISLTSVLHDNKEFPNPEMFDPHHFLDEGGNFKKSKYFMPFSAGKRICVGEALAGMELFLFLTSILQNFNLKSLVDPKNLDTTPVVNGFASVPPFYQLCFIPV
- assay_remarks: Inhibition of human CYP2C9 at 10 uM
- Format: ADME
result_type: inhibition at 10 µM

Request: Name the recorded inhibition at 10 µM of the item `O=C(O)CCCN1CCC[C@H]1COc1ccc(Oc2ccc(Cl)cc2)cc1` in your answer.
Result: < 50%

----------
- assay_remarks: Cmax in Sprague-Dawley rat at 10 mg/kg, iv
- Assay type: ADME, organism-based
- Set-up: dose 10 mg/kg, route intravenous
- details: in vivo
result_type: Cmax (µM)
One number for each entry, in µM.

Request: Name the recorded Cmax of the item `c1ccc(Cc2ccc(OC[C@H]3CCCN3)cc2)cc1` in your answer.
Result: 1.46

----------
- assay_remarks: Metabolic stability in rat liver microsomes assessed as compound remaining after 30 mins
- Assay type: ADME, Microsome
- details: read-out: Stability
result_type: remaining at 0.5 h (%)
Numbers only, in %.

Past entries and their recorded results:
compound_structure=Clc1ccc(Oc2ccc(OC[C@H]3CCCN3)cc2)cc1 result_type="remaining at 0.5 h" experimental_value=86.6
compound_structure=c1ccc(Cc2ccc(OC[C@H]3CCCN3)cc2)cc1 result_type="remaining at 0.5 h" experimental_value=10.5

Then there is this molecule:
Request: Name the recorded remaining at 0.5 h of the item `O=C(O)CCCN1CCC[C@H]1COc1ccc(Oc2ccc(Cl)cc2)cc1` in your answer.
Result: 95.2

----------
- assay_remarks: Cmax in mouse at 10 mg/kg, po
- Type: ADME, organism-based
- Set-up: dose 10 mg/kg, route oral
- details: in vivo
result_type: Cmax (nM)
Numbers only, in nM.

Request: Name the recorded Cmax of the item `Clc1ccc(Oc2ccc(OC[C@H]3CCCN3)cc2)cc1` in your answer.
Result: 1020

----------
- assay_remarks: Volume of distribution in dog at 10 mg/kg, iv
- Format: ADME, organism-based, Canis lupus familiaris
- Set-up: dose 10 mg/kg, route intravenous
- details: in vivo
result_type: Vd (L/kg)
One number for each entry, in L/kg.

Request: Name the recorded Vd of the item `O=C(O)CCCN1CCC[C@H]1COc1ccc(Oc2ccc(Cl)cc2)cc1` in your answer.
Result: 1.56

----------
- assay_remarks: AUC (0 to infinity) in monkey at 10 mg/kg, po
- Type: ADME, organism-based, Macaca mulatta
- Parameters: time infinity, dose 10 mg/kg, route oral
- details: rhesus monkey, plasma
result_type: AUC(0-inf) (ng·h/mL)
Numbers only, in ng·h/mL.

Request: Name the recorded AUC(0-inf) of the item `O=C(O)CCCN1CCC[C@H]1COc1ccc(Oc2ccc(Cl)cc2)cc1` in your answer.
Result: 52400

----------
- assay_remarks: Volume of distribution in mouse at 10 mg/kg, iv
- Format: ADME, organism-based
- Set-up: dose 10 mg/kg, route intravenous
- details: in vivo
result_type: Vd (L/kg)
Numbers only, in L/kg.

Request: Name the recorded Vd of the item `Clc1ccc(Oc2ccc(OC[C@H]3CCCN3)cc2)cc1` in your answer.
Result: 6.32

----------
- assay_remarks: Clearance in dog at 10 mg/kg, iv
- Assay type: ADME, organism-based, Canis lupus familiaris
- Set-up: dose 10 mg/kg, route intravenous
- details: in vivo
result_type: clearance (mL/min/kg)
One number for each entry, in mL/min/kg.

Request: Name the recorded clearance of the item `O=C(O)CCCN1CCC[C@H]1COc1ccc(Oc2ccc(Cl)cc2)cc1` in your answer.
Result: 7.6

----------
- system_tested: Leukotriene A-4 hydrolase (Homo sapiens, UniProt P09960)
result_type: IC50 (nM)
Answers are plain numbers, in nM.

Request: Name the recorded IC50 of the item `Clc1ccc(Oc2ccc(OC[C@H]3CCCN3)cc2)cc1` in your answer.
Result: 533

----------
- assay_remarks: Half life in Sprague-Dawley rat at 10 mg/kg, po
- Format: ADME, organism-based
- Set-up: dose 10 mg/kg, route oral
- details: in vivo
result_type: half-life
I'd appreciate it if you wrote the number followed by its unit.

compound_structure=c1ccc(Cc2ccc(OC[C@H]3CCCN3)cc2)cc1 experimental_value="0.67 h"

Then there is this molecule:
Request: Name the recorded half-life of the item `O=C(O)CCCN1CCC[C@H]1COc1ccc(Oc2ccc(Cl)cc2)cc1` in your answer.
Result: 2.57 h

----------
- assay_remarks: AUC (0 to infinity) in mouse at 10 mg/kg, po
- Format: ADME, organism-based
- Parameters: time infinity, dose 10 mg/kg, route oral
- details: plasma
result_type: AUC(0-inf) (ng·h/mL)
Numbers only, in ng·h/mL.

Request: Name the recorded AUC(0-inf) of the item `Clc1ccc(Oc2ccc(OC[C@H]3CCCN3)cc2)cc1` in your answer.
Result: 2360

----------
- assay_remarks: Cmax in monkey at 10 mg/kg, po
- Assay type: ADME, organism-based, Macaca mulatta
- Parameters: dose 10 mg/kg, route oral
- details: rhesus monkey, in vivo
result_type: Cmax (µM)
Give bare numbers, in µM.

Request: Name the recorded Cmax of the item `O=C(O)CCCN1CCC[C@H]1COc1ccc(Oc2ccc(Cl)cc2)cc1` in your answer.
Result: 18.9

----------
- assay_remarks: Cmax in dog at 10 mg/kg, po
- Format: ADME, organism-based, Canis lupus familiaris
- Design: dose 10 mg/kg, route oral
- details: in vivo
result_type: Cmax (µM)
Numbers only, in µM.

Request: Name the recorded Cmax of the item `O=C(O)CCCN1CCC[C@H]1COc1ccc(Oc2ccc(Cl)cc2)cc1` in your answer.
Result: 19.3

----------
- system_tested: CYP1A2 (Homo sapiens)
- Sequence (P05177 whole entry): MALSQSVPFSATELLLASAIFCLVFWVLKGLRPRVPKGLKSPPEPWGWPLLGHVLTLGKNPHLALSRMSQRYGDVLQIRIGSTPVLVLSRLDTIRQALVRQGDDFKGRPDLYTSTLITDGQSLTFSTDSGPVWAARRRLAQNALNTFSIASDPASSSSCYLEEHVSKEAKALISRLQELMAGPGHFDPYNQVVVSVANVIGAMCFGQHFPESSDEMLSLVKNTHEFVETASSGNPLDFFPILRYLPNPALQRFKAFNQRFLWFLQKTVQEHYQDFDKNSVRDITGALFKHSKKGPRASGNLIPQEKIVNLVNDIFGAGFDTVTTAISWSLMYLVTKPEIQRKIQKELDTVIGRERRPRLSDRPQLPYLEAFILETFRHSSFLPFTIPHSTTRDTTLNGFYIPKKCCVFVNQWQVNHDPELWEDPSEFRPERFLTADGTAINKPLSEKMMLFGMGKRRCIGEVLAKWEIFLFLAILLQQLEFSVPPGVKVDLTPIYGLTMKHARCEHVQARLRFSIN
- assay_remarks: Inhibition of human CYP1A2 at 10 uM
- Assay type: ADME
result_type: inhibition at 10 µM

Request: Name the recorded inhibition at 10 µM of the item `O=C(O)CCCN1CCC[C@H]1COc1ccc(Oc2ccc(Cl)cc2)cc1` in your answer.
Result: < 50%

----------
- assay_remarks: Half life in mouse at 10 mg/kg, po
- Type: ADME, organism-based
- Parameters: dose 10 mg/kg, route oral
- details: in vivo
result_type: half-life (h)
Give bare numbers, in h.

Request: Name the recorded half-life of the item `Clc1ccc(Oc2ccc(OC[C@H]3CCCN3)cc2)cc1` in your answer.
Result: 3.59

----------
- assay_remarks: Clearance in mouse at 10 mg/kg, iv
- Format: ADME, organism-based
- Parameters: dose 10 mg/kg, route intravenous
- details: in vivo
result_type: clearance (mL/min/kg)
Numbers only, in mL/min/kg.

Request: Name the recorded clearance of the item `Clc1ccc(Oc2ccc(OC[C@H]3CCCN3)cc2)cc1` in your answer.
Result: 61

----------
- system_tested: Leukotriene A-4 hydrolase (Homo sapiens, UniProt P09960)
- Sequence (P09960 whole entry): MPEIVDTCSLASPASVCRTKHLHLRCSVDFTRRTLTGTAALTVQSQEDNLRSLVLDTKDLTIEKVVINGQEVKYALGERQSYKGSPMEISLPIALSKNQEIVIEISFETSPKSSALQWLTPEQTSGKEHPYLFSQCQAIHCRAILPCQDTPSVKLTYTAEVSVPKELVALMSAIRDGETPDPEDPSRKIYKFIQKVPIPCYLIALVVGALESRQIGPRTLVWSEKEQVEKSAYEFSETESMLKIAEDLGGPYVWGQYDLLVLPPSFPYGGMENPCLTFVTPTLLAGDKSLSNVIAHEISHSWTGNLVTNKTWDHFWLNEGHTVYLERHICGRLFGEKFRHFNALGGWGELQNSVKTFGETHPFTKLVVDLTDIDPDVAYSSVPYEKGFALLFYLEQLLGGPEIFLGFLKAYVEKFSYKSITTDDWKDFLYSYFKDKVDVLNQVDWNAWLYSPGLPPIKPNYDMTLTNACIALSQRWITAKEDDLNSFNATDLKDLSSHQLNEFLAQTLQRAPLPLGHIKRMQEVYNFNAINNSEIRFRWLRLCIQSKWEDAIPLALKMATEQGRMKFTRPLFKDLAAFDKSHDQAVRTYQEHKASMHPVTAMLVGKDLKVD
result_type: IC50 (nM)
Numbers only, in nM.

Past entries and their recorded results:
compound_structure=c1ccc(Cc2ccc(OCCc3ccncc3)cc2)cc1 result_type=IC50 units_of_measure=nM experimental_value=8700
compound_structure=Ic1ccc(Oc2ccc(N3CCNCC3)cc2)cc1 result_type=IC50 units_of_measure=nM experimental_value=340

Request: Name the recorded IC50 of the item `Clc1ccc(Oc2ccc(OC[C@H]3CCCN3)cc2)cc1` in your answer.
Result: 30
